From: patent US12581252B2

target-of-assay: H1047R PIK3CA enzyme (Homo sapiens, UniProt P42336, H1047R)
Sequence (P42336 whole entry H1047R): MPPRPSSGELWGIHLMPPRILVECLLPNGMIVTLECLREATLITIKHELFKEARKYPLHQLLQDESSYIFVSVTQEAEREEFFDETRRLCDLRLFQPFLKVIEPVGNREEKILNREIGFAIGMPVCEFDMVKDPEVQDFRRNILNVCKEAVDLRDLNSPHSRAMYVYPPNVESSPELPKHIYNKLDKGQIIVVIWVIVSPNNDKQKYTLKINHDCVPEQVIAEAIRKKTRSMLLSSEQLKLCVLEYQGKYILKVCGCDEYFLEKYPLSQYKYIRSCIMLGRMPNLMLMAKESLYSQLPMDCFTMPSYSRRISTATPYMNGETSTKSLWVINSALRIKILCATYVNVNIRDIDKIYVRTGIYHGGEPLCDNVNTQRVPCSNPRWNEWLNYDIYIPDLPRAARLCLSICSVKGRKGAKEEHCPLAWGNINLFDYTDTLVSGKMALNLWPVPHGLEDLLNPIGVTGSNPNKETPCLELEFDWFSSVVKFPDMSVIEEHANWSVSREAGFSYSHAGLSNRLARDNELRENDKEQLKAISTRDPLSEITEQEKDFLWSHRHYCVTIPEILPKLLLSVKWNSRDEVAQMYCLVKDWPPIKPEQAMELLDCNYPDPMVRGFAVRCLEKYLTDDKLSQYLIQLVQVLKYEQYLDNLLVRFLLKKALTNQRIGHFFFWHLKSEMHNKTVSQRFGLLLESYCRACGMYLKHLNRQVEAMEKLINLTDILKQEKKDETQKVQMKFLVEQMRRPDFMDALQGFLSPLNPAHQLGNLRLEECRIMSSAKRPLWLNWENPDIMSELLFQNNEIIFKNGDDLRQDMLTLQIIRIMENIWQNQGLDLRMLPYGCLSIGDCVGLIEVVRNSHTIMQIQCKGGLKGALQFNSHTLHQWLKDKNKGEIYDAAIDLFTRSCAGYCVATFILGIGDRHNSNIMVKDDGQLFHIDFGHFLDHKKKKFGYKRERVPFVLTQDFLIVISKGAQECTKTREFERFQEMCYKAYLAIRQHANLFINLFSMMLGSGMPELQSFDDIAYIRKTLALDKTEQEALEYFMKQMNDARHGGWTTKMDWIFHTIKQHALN
Sequence (P27986 whole entry partner): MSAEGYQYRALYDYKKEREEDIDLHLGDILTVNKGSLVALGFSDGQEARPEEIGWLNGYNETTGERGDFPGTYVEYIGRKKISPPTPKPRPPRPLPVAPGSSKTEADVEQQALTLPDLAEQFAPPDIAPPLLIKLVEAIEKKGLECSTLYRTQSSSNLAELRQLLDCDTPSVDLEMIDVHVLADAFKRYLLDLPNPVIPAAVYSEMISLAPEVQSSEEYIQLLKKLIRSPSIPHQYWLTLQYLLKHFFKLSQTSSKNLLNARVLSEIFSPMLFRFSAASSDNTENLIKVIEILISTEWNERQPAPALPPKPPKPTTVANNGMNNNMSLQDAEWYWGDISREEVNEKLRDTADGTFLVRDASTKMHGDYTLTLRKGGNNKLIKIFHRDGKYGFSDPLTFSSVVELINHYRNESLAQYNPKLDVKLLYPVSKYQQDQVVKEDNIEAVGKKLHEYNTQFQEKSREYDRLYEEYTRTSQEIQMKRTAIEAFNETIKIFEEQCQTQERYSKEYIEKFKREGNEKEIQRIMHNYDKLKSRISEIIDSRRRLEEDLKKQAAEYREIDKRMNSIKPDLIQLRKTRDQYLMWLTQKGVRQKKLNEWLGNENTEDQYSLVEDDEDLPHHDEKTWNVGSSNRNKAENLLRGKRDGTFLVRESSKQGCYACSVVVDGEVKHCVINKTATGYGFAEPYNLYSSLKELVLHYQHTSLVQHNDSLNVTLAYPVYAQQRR
run-description: ADP-Glo Biochemical PIK3CA Kinase Assay
The following molecules are shown together with reported IC50 values.

### Prompt For the molecule CC(=O)c1cc(F)cc(C(=O)Nc2cccc3c2C(c2cc(F)ccc2Cl)NC3=O)c1 (centres unmarked) , what IC50 is on record?
### Response 1 to 10 µM

### Prompt // IC50 lookup, key: C#Cc1ccccc1-c1cc(NC(=O)c2cc(F)cc(C(F)(F)F)c2)c2c(c1)C(=O)NC2c1cc(F)ccc1Cl (centres unmarked)
### Response ≤ 0.1 µM

### Prompt Fill blank: measured IC50 of the molecule CN1CC(c2cc(NC(=O)c3cc(F)cc(C(F)(F)F)c3)c3c(c2)C(=O)NC3c2cc(F)ccc2Cl)CC1=O (racemic) is ____.
### Response ≤ 0.1 µM

### Prompt So what's the measured IC50 for this one? Cc1ncccc1-c1cc(NC(=O)c2cc(F)cc(C(F)(F)F)c2)c2c(c1)C(=O)NC2c1cc(F)ccc1Cl (centres unmarked)
### Response ≤ 0.1 µM

### Prompt Tell me the measured IC50 of O=C1N[C@H](c2ccccc2Cl)c2c(NC(=O)N3C[C@@](O)(C(F)(F)F)c4cc(F)ccc43)cccc21 (single isomer, unassigned) , please.
### Response ≤ 0.1 µM

### Prompt Consider the molecule shown here: CC(C)(C#N)n1cc(-c2cc(NC(=O)c3cc(F)cc(C(F)(F)F)c3)c3c(c2)C(=O)N[C@H]3c2cc(F)ccc2Cl)cn1 (racemic) What is its recorded IC50?
### Response ≤ 0.1 µM

### Prompt Field request: IC50 | item: [2H][C@@]1(c2cc(F)ccc2Cl)NC(=O)c2cccc(NC(=O)N3C[C@@](O)(C(F)(F)F)c4cc(F)ccc43)c21 (single isomer, unassigned)
### Response ≤ 0.1 µM

### Prompt # lookup: IC50 of O=C(Nc1cc(Br)cc2c1C(c1cc(Cl)cc(F)c1F)NC2=O)c1cc(F)cc(C(F)(F)F)c1 (centres unmarked)
### Response ≤ 0.1 µM

----------
target-of-assay: H1047R PIK3CA enzyme (Homo sapiens, UniProt P42336, H1047R)
run-description: ADP-Glo Biochemical PIK3CA Kinase Assay
pIC50: −log10 of the molar value.
# maps each entry to its pIC50

O=C(Nc1cc(Br)cc2c1C(c1cc(F)ccc1Cl)NC2=O)c1ccnc(C(F)(F)F)c1F (stereo not shown) [Compound I-607]; 4.00 to 5.00
O=C1NC(c2cc(F)ccc2Cl)c2c(NC(=O)N3CCC(c4ccccc4)C3)cc(Br)cc21 (racemic) [Compound I-598]; 5.00 to 6.00
CNc1cc(C2NC(=O)c3cccc(NC(=O)c4cc(F)cc(C(F)(F)F)c4)c32)ccn1 (stereo not shown) [Compound I-874]; 4.00 to 5.00
CN(C)S(=O)(=O)c1cc(-c2ccc3ncnn3c2)cc2c1[C@@H](c1cc(F)ccc1Cl)NC2=O [Compound I-2098]; 4.00 to 5.00
O=C(Nc1cc(-c2cn3ncnc3cn2)cc2c1[C@@H](c1cc(F)ccc1Cl)NC2=O)c1cc(F)cc(C(F)(F)F)c1 [Compound I-1440]; 5.00 to 6.00

### Prompt Provide value of pIC50 for this record tested with H1047R PIK3CA enzyme (Homo sapiens, UniProt P42336, H1047R): O=C(Nc1cc(-c2cn3ncccc3n2)cc2c1C(c1cc(F)ccc1Cl)NC2=O)c1cc(F)cc(C(F)(F)F)c1 (stereo not shown) [Compound I-1306]
### Response ≥ 7.00

### Prompt Notebook entry, H1047R PIK3CA enzyme (Homo sapiens, UniProt P42336, H1047R) assay: pIC50 of Cc1ccccc1C1NC(=O)c2cc(NC(C)C)cc(NC(=O)c3csc4ccccc34)c21 (stereo not shown) [Compound I-53] = ?
### Response ≥ 7.00

----------
pIC50 values by entry
target-of-assay: H1047R PIK3CA enzyme (Homo sapiens, UniProt P42336, H1047R)
run-description: ADP-Glo Biochemical PIK3CA Kinase Assay
pIC50: −log10 of the molar value.

O=C(Nc1cc(C2(O)COCC2O)cc2c1C(c1cc(F)ccc1Cl)NC2=O)c1cc(F)cc(C(F)(F)F)c1 (stereo not shown); 6.30 to 7.00

### Prompt Requested field: pIC50. Item: Cn1cnc2ccc(-c3cc(NC(=O)c4cc(F)cc(C(F)(F)F)c4)c4c(c3)C(=O)NC4c3cc(F)ccc3Cl)cc21 (stereo not shown)
### Response ≥ 7.00

### Prompt Entry under review: O=C1NC(c2cc(F)ccc2Cl)c2c(NC(=O)C3(c4ccccc4)COC3)cc(Br)cc21 (stereo not shown) . Reported pIC50?
### Response 4.00 to 5.00

----------
target-of-assay: H1047R PIK3CA enzyme (Homo sapiens, UniProt P42336, H1047R)
run-description: ADP-Glo Biochemical PIK3CA Kinase Assay
pIC50: −log10 of the molar value.
Reported pIC50 values for the following compounds.

Some entries whose results are on file:
CC(C)(CN)n1cc(-c2cc(NC(=O)c3cc(F)cc(C(F)(F)F)c3)c3c(c2)C(=O)NC3c2cc(F)ccc2Cl)cn1 (stereo not drawn); ≥ 7.00
Cc1c(-c2cc(NC(=O)c3cc(F)cc(C(F)(F)F)c3)c3c(c2)C(=O)N[C@@H]3c2cc(F)ccc2Cl)ccc2ncnn12; 5.00 to 6.00

Next up:
### Prompt Please look up its pIC50: O=C1NC(c2cc(F)ccc2Cl)c2c(OC3CCOc4ccccc43)cc(-c3ccc4ncnn4c3)cc21 (stereo not drawn)
### Response 4.00 to 5.00

----------
target-of-assay: H1047R PIK3CA enzyme (Homo sapiens, UniProt P42336, H1047R)
run-description: ADP-Glo Biochemical PIK3CA Kinase Assay
pIC50: −log10 of the molar value.
experimental-endpoint: pIC50

Worked examples follow.
Cc1ccccc1C1NC(=O)c2cccc(NC(=O)c3cc(F)cc(C(C)C)c3)c21 (centres unmarked) [Compound I-715]; 5.00 to 6.00
O=C1NC(c2cc(F)ccc2Cl)c2c(NC(=O)C34CC(C(O)(C5CC5)C5CC5)(C3)C4)cccc21 (centres unmarked) [Compound I-2118]; 4.00 to 5.00
CSC(C)c1cc(NC(=O)c2cc(F)cc(C(F)(F)F)c2)c2c(c1)C(=O)NC2c1cc(F)ccc1Cl (racemic) [Compound I-1490]; ≥ 7.00
CN(C)/C=N/c1cc(Br)cc2c1C(c1cc(F)ccc1Br)NC2=O (centres unmarked) [Compound I-326]; 4.00 to 5.00
O=C(Nc1cc(C2COCCO2)cc2c1C(c1cc(F)ccc1Cl)NC2=O)c1cc(F)cc(C(F)(F)F)c1 (centres unmarked) [Compound I-1361]; 6.30 to 7.00
O=C1NC(c2cc(F)ccc2Cl)c2c(NC(=O)N3CC4CC4(F)C3)cc(Br)cc21 (centres unmarked) [Compound I-1954]; 4.00 to 5.00
O=C1N[C@@H](c2cc(F)ccc2Cl)c2c(NC(=O)N3C[C@@H](O)c4cccc(F)c43)cccc21 (single isomer, unassigned) [Compound I-2210]; 4.00 to 5.00
CC(C)(O)c1cc(NC(=O)c2nsc3ccccc23)c2c(n1)C(=O)NC2c1ccccc1Cl (centres unmarked) [Compound I-250]; ≥ 7.00

### Prompt # query: pIC50 | item O=C1C[C@H](c2cc(NC(=O)c3cc(F)cc(C(F)(F)F)c3)c3c(c2)C(=O)N[C@@H]3c2cc(F)ccc2Cl)CN1 (single isomer, unassigned) [Compound I-1711] | system: H1047R PIK3CA enzyme (Homo sapiens, UniProt P42336, H1047R)
### Response 5.00 to 6.00

### Prompt Query the reported pIC50 for H1047R PIK3CA enzyme (Homo sapiens, UniProt P42336, H1047R); item: C[C@H](c1nn[nH]c1C(=O)Nc1cccc2c1[C@@H](c1cc(F)ccc1Cl)NC2=O)C(F)(F)F (single isomer, unassigned) [Compound I-2268]
### Response 4.00 to 5.00

### Prompt Item: O=C1N[C@H](c2cc(F)ccc2Cl)c2c(NC(=O)[C@H]3C[C@H](O)C[C@@H](C(F)(F)F)C3)cc(Br)cc21 (single isomer, unassigned) [Compound I-2150] Test system: H1047R PIK3CA enzyme (Homo sapiens, UniProt P42336, H1047R) Read-out: pIC50 Value: ?
### Response 5.00 to 6.00

### Prompt Recorded pIC50 for O=C1NC(c2cc(F)ccc2Cl)c2c(NC(=O)N3CCc4cnccc43)cccc21 (centres unmarked) [Compound I-2191] with H1047R PIK3CA enzyme (Homo sapiens, UniProt P42336, H1047R), please?
### Response 5.00 to 6.00

### Prompt # get_value(readout= pIC50, system= H1047R PIK3CA enzyme (Homo sapiens, UniProt P42336, H1047R)) for O=C(NCCC(O)C(F)(F)F)c1cccc2c1C(c1cc(F)ccc1Cl)NC2=O (centres unmarked) [Compound I-2094]
### Response 4.00 to 5.00

### Prompt Entry O=C(Nc1cc(-c2ccnn2C[C@@H]2CCOC2)cc2c1C(c1cc(F)ccc1Cl)NC2=O)c1cc(F)cc(C(F)(F)F)c1 (single isomer, unassigned) [Compound I-1407] , system H1047R PIK3CA enzyme (Homo sapiens, UniProt P42336, H1047R): what pIC50 was measured?
### Response ≥ 7.00

### Prompt Fill in the recorded pIC50 for this compound, with H1047R PIK3CA enzyme (Homo sapiens, UniProt P42336, H1047R) as test system: O=C1NC(c2cc(F)ccc2Cl)c2c(NC3CCS(=O)(=O)CC3)cc(-c3ccc4ncnn4c3)cc21 (centres unmarked) [Compound I-2010]
### Response 4.00 to 5.00
